This listing pairs compounds with measured Relative sialidase activity.
# Tested Target: Pd2,6ST S232L/T356S/W361F (Photobacterium damselae, UniProt O66375, S232L/T356S/W361F)
# Construct: (Δ15Pd2, 6ST); His6 tag with thrombin site ([…]) (N); made in house; host or cells: E. coli BL21(DE3)
# Protocol Notes: Linkage specificity assays (relative sialidase activity towards sialosides, HPLC)
# Assay type: biochemical
# Protocol Conditions: of Pd2,6ST S232L/T356S/W361F towards the sialoside; 1 mM substrate, 0.5 mM CMP, pH 6.0, 37° C., 30 minutes; relative to compound 2

Below: 5 compounds and their reported Relative sialidase activity.
CC(=O)N[C@H]1[C@H]([C@H](O)[C@H](O)CO)OC(O[C@H]2[C@@H](O)[C@@H](CO)O[C@@H](Oc3ccc([N+](=O)[O-])cc3)[C@@H]2O)(C(=O)O)C[C@@H]1O (stereo partly drawn) | 2.5 × 10^−3
CC(=O)N[C@H]1[C@H]([C@H](O)[C@H](O)CO)OC(OC[C@H]2O[C@@H](Oc3ccc([N+](=O)[O-])cc3)[C@H](O)[C@@H](O)[C@H]2O)(C(=O)O)C[C@@H]1O (stereo partly drawn) | 1.0
O=C(CO)NC1C(O)CC(OCC2OC(Oc3ccc([N+](=O)[O-])cc3)C(O)C(O)C2O)(C(=O)O)OC1C(O)C(O)CO (stereo not drawn) | 1.2 × 10^−1
CC(=O)NC1C(O)CC(OC(CO)C(O)C2OC(OC3C(O)C(CO)OC(Oc4ccc([N+](=O)[O-])cc4)C3O)(C(=O)O)CC(O)C2NC(C)=O)(C(=O)O)OC1C(O)C(O)CO (stereo not drawn) | 3.3 × 10^−3
O=C(O)C1(OCC2OC(Oc3ccc([N+](=O)[O-])cc3)C(O)C(O)C2O)CC(O)C(O)C(C(O)C(O)CO)O1 (stereo not drawn) | 9.8 × 10^−4

QUERY: Given the entry CC(=O)NC1C(Oc2ccc([N+](=O)[O-])cc2)OC(COC2(C(=O)O)CC(O)C(NC(C)=O)C(C(O)C(O)CO)O2)C(O)C1O (stereo not drawn) , what Relative sialidase activity was observed with Pd2,6ST S232L/T356S/W361F (Photobacterium damselae, UniProt O66375, S232L/T356S/W361F)?
RESULT: 1.9
